test: ABTS radical cation scavenging activity assay; details: Trolox equivalent antioxidant capacity, 1 h incubation
Examples of compounds with documented ABTS•+-Scavenging Activity, TEAC follow.
Quick one: just the number, no unit, thanks!

Some solved entries appear below for comparison.
>>> df
                                   compound  value_reported
0                    Nc1c2c(nc3c1CCC3)CCCC2            0.04
1  S=C(NCCCCCCCNC(=S)Nc1c2c(nc3c1CCC3)CCCC2)Nc1c2c(nc3c1CCC3)CCCC2             1.2
2  S=C(NCCCCCCCCNC(=S)Nc1c2c(nc3c1CCC3)CCCC2)Nc1c2c(nc3c1CCC3)CCCC2             1.5
3  S=C(NCCNC(=S)Nc1c2c(nc3c1CCC3)CCCC2)Nc1c2c(nc3c1CCC3)CCCC2             2.1
4  O=C(CNCCCNCC(=O)Nc1c2c(nc3c1CCC3)CCCC2)Nc1c2c(nc3c1CCC3)CCCC2            0.05

Ask: Field request: ABTS•+-Scavenging Activity, TEAC | item: Cc1c(C)c2c(c(C)c1O)CCC(C)(C(=O)O)O2 (stereo not shown) [Trolox, reference compound]
Result: 1.0

Ask: // repeat for O=C(CNCCCCNCC(=O)Nc1c2c(nc3c1CCC3)CCCC2)Nc1c2c(nc3c1CCC3)CCCC2 and report
Result: 0.10

Ask: // repeat for O=C(CNCCCCCCCCNCC(=O)Nc1c2c(nc3c1CCC3)CCCC2)Nc1c2c(nc3c1CCC3)CCCC2 and report
Result: 0.04

Ask: // repeat for S=C(NCCCNC(=S)Nc1c2c(nc3c1CCC3)CCCC2)Nc1c2c(nc3c1CCC3)CCCC2 and report
Result: 1.9

Ask: // repeat for S=C(NCCCCCNC(=S)Nc1c2c(nc3c1CCC3)CCCC2)Nc1c2c(nc3c1CCC3)CCCC2 and report
Result: 1.6
